Assay Summary: Theacrine-caffeine interaction study: single oral dose plasma pharmacokinetics (LC-MS/MS, noncompartmental)
Type: in vivo, human
Measurement Parameters: both sexes, human, plasma, oral, Cmax, paraxanthine in plasma; Condition 4: Theacrine 125 mg + Caffeine 150 mg; dose-adjusted, mean ± SD

Chemical Smiles: Cn1c(=O)[nH]c2ncn(C)c2c1=O
Value Unit: ng/mL/mg
dose-adjusted Cmax: 8.4

----------
Assay Summary: Theacrine-caffeine interaction study: single oral dose plasma pharmacokinetics (LC-MS/MS, noncompartmental)
Type: in vivo, human
Measurement Parameters: both sexes, human, in vivo, 150 mg, Vd/F
Experimental: Theacrine pharmacokinetics in humans has not been systematically characterized. Therefore, one purpose of this study, among others, was to determine theacrine pharmacokinetics and dose-linearity following oral administration in humans. […] Test Visit Procedures. […] In addition, respiratory rate was counted in one minute and body temperature was measured using an ear scanning thermometer (dual readings taken at each time). […]

Compound: Cn1c(=O)c2c(ncn2C)n(C)c1=O [Caffeine, caffeine, reference compound]
Vd/F / L: 33.5

----------
Assay Summary: Theacrine-caffeine interaction study: single oral dose plasma pharmacokinetics (LC-MS/MS, noncompartmental)
Type: in vivo, human
Measurement Parameters: both sexes, human, plasma, po, 25 mg, Cmax, theacrine in plasma; Condition 1: Theacrine 25 mg single oral dose; dose-adjusted, mean ± SD
Observed Property: dose-adjusted Cmax (ng/mL/mg)

Compound: Cn1c(=O)c2c(n(C)c1=O)n(C)c(=O)n2C [Theacrine, 1,3,7,9-tetramethylpurine-2,6,8-trione]
Observed Property: dose-adjusted Cmax
Quantitative Readout: 34.1

----------
Assay Summary: Theacrine-caffeine interaction study: single oral dose plasma pharmacokinetics (LC-MS/MS, noncompartmental)
Assay type: in vivo, human
Measurement Parameters: both sexes, human; theacrine in plasma; Condition 1: Theacrine 25 mg single oral dose; mean ± SD; read-out: t1/2 (converted)
Observed Property: half-life (h)

Compound: Cn1c(=O)c2c(n(C)c1=O)n(C)c(=O)n2C [Theacrine, 1,3,7,9-tetramethylpurine-2,6,8-trione]
Quantitative Readout: 16.5

----------
Assay Summary: Theacrine-caffeine interaction study: single oral dose plasma pharmacokinetics (LC-MS/MS, noncompartmental)
Format: in vivo, human
Measurement Parameters: both sexes, human, plasma, oral, 150 mg; read-out: MRT

Chemical Smiles: Cn1c(=O)[nH]c2ncn(C)c2c1=O
MRT [h]: 19.1

----------
Assay Summary: Theacrine-caffeine interaction study: single oral dose plasma pharmacokinetics (LC-MS/MS, noncompartmental)
Format: in vivo, human
Measurement Parameters: both sexes, human, plasma, po, 125 mg

Compound: Cn1c(=O)c2c(n(C)c1=O)n(C)c(=O)n2C [Theacrine, 1,3,7,9-tetramethylpurine-2,6,8-trione]
Value Unit: h
Tmax: 1.8

----------
Assay Summary: Theacrine-caffeine interaction study: single oral dose plasma pharmacokinetics (LC-MS/MS, noncompartmental)
Format: in vivo, human
Measurement Parameters: both sexes, human, plasma, po, 125 mg, theacrine; Condition 2: Theacrine 125 mg single oral dose; mean ± SD; read-out: Vd/F
Experimental: Theacrine pharmacokinetics in humans has not been systematically characterized. Therefore, one purpose of this study, among others, was to determine theacrine pharmacokinetics and dose-linearity following oral administration in humans. […] Test Visit Procedures. […] In addition, respiratory rate was counted in one minute and body temperature was measured using an ear scanning thermometer (dual readings taken at each time). […]

Compound: Cn1c(=O)c2c(n(C)c1=O)n(C)c(=O)n2C [Theacrine, 1,3,7,9-tetramethylpurine-2,6,8-trione]
Value Unit: L
Vd/F: 50.5

----------
Assay Summary: Theacrine-caffeine interaction study: single oral dose plasma pharmacokinetics (LC-MS/MS, noncompartmental)
Assay type: in vivo, human
Measurement Parameters: both sexes, human, plasma, oral, 150 mg; read-out: t1/2 (converted)

Compound: Cn1c(=O)[nH]c2ncn(C)c2c1=O [Paraxanthine, paraxanthine]
Value Unit: h
half-life: 12.5

----------
Assay Summary: Theacrine-caffeine interaction study: single oral dose plasma pharmacokinetics (LC-MS/MS, noncompartmental)
Type: in vivo, human
Measurement Parameters: both sexes, human, plasma, po, 25 mg, theacrine; Condition 1: Theacrine 25 mg single oral dose; mean ± SD; read-out: Vd/F
Experimental: Theacrine pharmacokinetics in humans has not been systematically characterized. Therefore, one purpose of this study, among others, was to determine theacrine pharmacokinetics and dose-linearity following oral administration in humans. […] Test Visit Procedures. […] In addition, respiratory rate was counted in one minute and body temperature was measured using an ear scanning thermometer (dual readings taken at each time). […]
Observed Property: Vd/F (L)

Chemical Smiles: Cn1c(=O)c2c(n(C)c1=O)n(C)c(=O)n2C
Observed Property: Vd/F
Quantitative Readout: 48.1

----------
Assay Summary: Theacrine-caffeine interaction study: single oral dose plasma pharmacokinetics (LC-MS/MS, noncompartmental)
Assay type: in vivo, human
Measurement Parameters: both sexes, human, in vivo, 150 mg

Compound: Cn1c(=O)c2c(ncn2C)n(C)c1=O [Caffeine, caffeine, reference compound]
MRT: 8.4 h

----------
Assay Summary: Theacrine-caffeine interaction study: single oral dose plasma pharmacokinetics (LC-MS/MS, noncompartmental)
Assay type: in vivo, human
Measurement Parameters: both sexes, human, plasma, po, 125 mg; read-out: t1/2 (converted)

Chemical Smiles: Cn1c(=O)c2c(n(C)c1=O)n(C)c(=O)n2C
half-life (h): 26.1

----------
Assay Summary: Theacrine-caffeine interaction study: single oral dose plasma pharmacokinetics (LC-MS/MS, noncompartmental)
Format: in vivo, human
Measurement Parameters: both sexes, human, plasma, oral, 150 mg

Chemical Smiles: Cn1c(=O)[nH]c2ncn(C)c2c1=O
Value Unit: h
Tmax: 5
